# Test system: HSSY-II tumor spheroid viability
# assay overview: Anticancer human tumor HSSY-II cell line growth inhibition;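 also: spheroids exposed to compounds for seven days before reading; percent of DMSO vehicle control viability so 100% = untreated level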
# applied conditions: second compound 0.003 µM; first compound 0.1 µM; active compounds read low; spheroids with HUVEC and MSC
# Procedure: Multicellular complex tumor spheroid response to DNA repair inhibitors in combination with DNA-damaging drugs This study explores the anticancer activities of DNA-damaging drugs and inhibitors of DNA damage repair, both as single agents and in combinations. […] Twenty-six patient-derived or established malignant cell lines were evaluated representing sarcoma, melanoma, small cell lung cancer (SCLC), non-small cell lung cancer (NSCLC), as well as bladder, ovarian and pancreatic cancers. […]
Exercise: for every item that follows, state its recorded viability, T/C.
Provide the reading as a plain figure in %.

Enquiry: Look up and report measured viability, T/C for this entry: CC(C)n1c(=O)n(C)c2cnc3cc(F)c(-c4ccc(OCCCN5CCCCC5)nc4)cc3c21 + COc1cc2c(cc1O)CCNC21CSC2c3c(OC(C)=O)c(C)c4c(c3C(COC1=O)N1C(O)C3Cc5cc(C)c(OC)c(O)c5C(C21)N3C)OCO4
Return: 0.2

Enquiry: Look up and report measured viability, T/C for this entry: Cc1cc(C)c(CNC(=O)c2cc(-c3ccc(CN4CCOCC4)cc3)cc3c2cnn3C2CCCC2)c(=O)[nH]1 + COc1cc2c(cc1O)CCNC21CSC2c3c(OC(C)=O)c(C)c4c(c3C(COC1=O)N1C(O)C3Cc5cc(C)c(OC)c(O)c5C(C21)N3C)OCO4
Return: 0.17

Enquiry: Look up and report measured viability, T/C for this entry: COc1ccc([C@@H](O)c2cc(-c3ncnc4cc(N5CCOCC5)ccc34)c(F)cc2Cl)nn1 + CC[C@@]1(O)C(=O)OCc2c1cc1n(c2=O)Cc2cc3c(CN(C)C)c(O)ccc3nc2-1
Return: 89.5

Enquiry: Look up and report measured viability, T/C for this entry: COc1cc(C)[nH]c(=O)c1CN1CCc2c(Cl)cc(C(OC)C3COC3)c(Cl)c2C1=O (centres undefined) + COc1cc2c(cc1O)CCNC21CSC2c3c(OC(C)=O)c(C)c4c(c3C(COC1=O)N1C(O)C3Cc5cc(C)c(OC)c(O)c5C(C21)N3C)OCO4
Return: 0.35

Enquiry: Look up and report measured viability, T/C for this entry: CC(C)n1c(=O)n(C)c2cnc3cc(F)c(-c4ccc(OCCCN5CCCCC5)nc4)cc3c21 + CC[C@@]1(O)C(=O)OCc2c1cc1n(c2=O)Cc2cc3c(CN(C)C)c(O)ccc3nc2-1
Return: 45.2

Enquiry: Look up and report measured viability, T/C for this entry: COc1ccc([C@@H](O)c2cc(-c3ncnc4cc(N5CCOCC5)ccc34)c(F)cc2Cl)nn1 + COc1cc2c(cc1O)CCNC21CSC2c3c(OC(C)=O)c(C)c4c(c3C(COC1=O)N1C(O)C3Cc5cc(C)c(OC)c(O)c5C(C21)N3C)OCO4
Return: 0.26

Enquiry: Look up and report measured viability, T/C for this entry: CC1COCCN1c1cc(-c2ccnn2C)c2ccnc(-c3ccn[nH]3)c2n1 (centres undefined) + CC[C@@]1(O)C(=O)OCc2c1cc1n(c2=O)Cc2cc3c(CN(C)C)c(O)ccc3nc2-1
Return: 4.36

Enquiry: Look up and report measured viability, T/C for this entry: CC1COCCN1c1cc(-c2ccnn2C)c2ccnc(-c3ccn[nH]3)c2n1 (centres undefined) + COc1cc2c(cc1O)CCNC21CSC2c3c(OC(C)=O)c(C)c4c(c3C(COC1=O)N1C(O)C3Cc5cc(C)c(OC)c(O)c5C(C21)N3C)OCO4
Return: 0.59

Enquiry: Look up and report measured viability, T/C for this entry: [2H]c1nc(C)nc([2H])c1-c1cc(NC[C@@H](C)c2cccc3c(C(=O)NC)ccnc23)ncn1 + CC[C@@]1(O)C(=O)OCc2c1cc1n(c2=O)Cc2cc3c(CN(C)C)c(O)ccc3nc2-1
Return: 93.9
